- Protocol Notes: Inhibition of [3H]-adenosine transport at Trypanosoma brucei Adenosine transporter P1 expressed in pentamidine/diminazene/melaminophenyl arsenical resistant Trypanosoma brucei B48 bloodstream forms after 60 secs by scintillation counting analysis
Please provide measured Ki for the entries that follow.
Write the value in µM as a bare number.

Query: Quick one: Ki for Nc1ncnc2c1c(-c1ccccn1)cn2[C@@H]1O[C@H](CO)[C@@H](O)[C@H]1O ?
Result: 2.54

Query: Look up Ki: Nc1ncnc2c1c(-c1cccnc1)cn2[C@@H]1O[C@H](CO)[C@@H](O)[C@H]1O
Result: 21.7

Query: Reported Ki for Nc1ncnc2c1c(-c1ccncc1)cn2[C@@H]1O[C@H](CO)[C@@H](O)[C@H]1O : what is it?
Result: 12.5

Query: What Ki value was documented for this compound, Nc1ncnc2c1ccn2[C@@H]1O[C@H](CO)[C@@H](O)[C@H]1O [TUBERCIDIN] ?
Result: 78

----------
Would you mind telling me the reported selectivity ratio of each entry?
- Protocol Notes: Selectivity index, ratio of EC50 for human MRC5 cells to EC50 for nifurtimox-sensitive Trypanosoma cruzi Tulahuen CL2 harboring beta-galactosidase
- Assay type: toxicity
- Cond: read-out: Ratio EC50
Answer field: number only, no words.

Query: What does the data say about its selectivity ratio? Entry: Nc1ncnc2c1c(-c1ccc(Cl)cc1)cn2[C@@H]1O[C@H](CO)[C@@H](O)[C@H]1O
Result: 57.4

Query: Bench note: what selectivity ratio did Nc1ncnc2c1ccn2[C@@H]1O[C@H](CO)[C@@H](O)[C@H]1O [TUBERCIDIN] show?
Result: 6.5

Query: Recorded selectivity ratio for Nc1ncnc2c1c(-c1ccc(Cl)c(Cl)c1)cn2[C@@H]1O[C@H](CO)[C@@H](O)[C@H]1O , please?
Result: 77.4

----------
- System: UGT
- Protocol Notes: Drug metabolism in mouse liver S9 fraction assessed as UGT-mediated metabolism by measuring parent compound remaining at 5 uM measured immediately in presence of UDPGA by UPLC analysis
- Format: ADME, subcellular
- Cond: read-out: Stability
Test Readout: remaining at 0 min, 5 µM
# output: number + unit

Query: What remaining at 0 min, 5 µM value was documented for this compound, Nc1ncnc2c1c(-c1ccccn1)cn2[C@@H]1O[C@H](CO)[C@@H](O)[C@H]1O ?
Result: 100%

----------
- System: Trypanosoma brucei
- Protocol Notes: Antitrypanosomal activity against wild type Trypanosoma brucei Lister 427 after 48 hrs by alamar blue assay
- Format: functional, organism-based
- Cond: Lister 427, 48 h
Test Readout: pEC50
Remember, pEC50 is on a log scale: it is -log10 of the molar concentration.

Query: Param item = CC[n+]1c(-c2ccccc2)c2cc(N/N=N/c3cccc(C(=N)N)c3)ccc2c2ccc(N)cc21 [ISOMETAMIDIUM] ; retrieve measured pEC50.
Result: 6.19

Query: Report pEC50 for N=C(N)c1ccc(/N=N/Nc2ccc(C(=N)N)cc2)cc1 [DIMINAZENE] please.
Result: 6.38

Query: Can you share its pEC50? I mean this compound: N=C(N)c1ccc(OCCCCCOc2ccc(C(=N)N)cc2)cc1 [PENTAMIDINE]
Result: 7.96

Query: Request the reported pEC50 associated with Nc1ncnc2c1ccn2[C@@H]1O[C@H](CO)[C@@H](O)[C@H]1O [TUBERCIDIN]
Result: 6.82

Query: Look up pEC50: Nc1ncnc2c1c(-c1ccccn1)cn2[C@@H]1O[C@H](CO)[C@@H](O)[C@H]1O
Result: 6.77
